assay: yeast display, Sf9 membrane polyspecificity reagent, FACS + sequencing; frameworks hold sequencing errors
endpoint: polyreactivity (PSR sort gate)

QLHLVESGGGLVQAGGSLRLSCAASGIIFWYNDMGWYRQAPGKESELVAAISTGGSTNYADSVKGRFTISRDNAKNTVYLQMNSLKPEDTAVYYCAGDWHRAYGGYDYWGEGTQVTVSS	low polyreactivity
QVQLVESGGGLVQAGGSLRLSCASSGSIFYGYAMGWYRQAPGKERELVAAINNSGVSTYYADSVQGRFTISRDNAKNTVYLQMNSLKPEDTAVYYCNKAGAYPYHYDYWGQGTQGTVSS	low polyreactivity
QVQLVESGGGLVQAGGSLRLSCAASGSTFVRYVMGWYRQAPGKQRELVAAISRRGGSTYYADSVEGRFTISRDNAKNTVYLQMNSLKPEDTAVYYCAARGTSRKYYYWGQGTQVTVSS	high polyreactivity
QVQLVESGGGLVQAGGSLRLSFAASGSIFTPNVMGWYRPAPGKERELVAAISQSGGSTFYADSVKGRFTISRDNAKNTVYLQMNSLKPEDTAVYFCATEYYGPVYDLDYDYWGQGTQVTVSS	low polyreactivity

(Q) I would be grateful if you could share the reported polyreactivity (PSR sort gate) for "QVQLVESGGGLVQAGGSLRLSCAASGRTFGAYAMGCYRQAPGKERELVAAISIGGRTYYADSVKGRFTISRDKAKNTVYLQMNILKPEDTAVYYCNKVRSPWYDSWGQGTQVTVSS" .
(A) high polyreactivity

* * *

test: yeast display, Sf9 membrane polyspecificity reagent, FACS + sequencing; frameworks hold sequencing errors
endpoint: polyreactivity (PSR sort gate)

The examples below pair each entry with its known result.
QVQLVESGGGLVQAGGSLRLSCAASGSTFGRSVMGWYRQAPGNVRELVGAISRRGGSTYYADSVKGRFTISRDNAKKTVYIQLHSRKPEDPAVYYSPVDGARSGEPYDSMDYWGQGTHVTVSS	high polyreactivity
QVQLVESGGGLVQAGGSLRLSCAASGSTFRRYAMGWYRQAPGKERELVATISSGGRTNYADSVKGRFTISRDNAKNTVYLQMNSLKPEDTAVYYCAARPYYYERSAGYYWGQGTQVTVSS	high polyreactivity
QVQLVESGGGLVQAGGSLRLSCADSGFTFGRYAMRWYRQATGKERELVAAISRGGSYTYYADSVKGRLTISRDNAQNTVFLQMNSLKPEDTAVYYCNIVIIWARFDYWRQGTQVTVSS	high polyreactivity
QVQLVESGGGLVQAGGSLRLSCAASGRICGYNSMGWYRQAPGKERELVAAISSSGGSTYYADSVKGRFTISRDYATNTVYVQMNSLKREATAVYYCAARIGYRSWAWDAYEYCGQGTQVTVSS	low polyreactivity

# context switch: different sequence, same polyreactivity (PSR sort gate)
(Q) I would be grateful if you could share the reported polyreactivity (PSR sort gate) for "QVQLVESGGRLVQAGGSLRISSAASRFILFPYAMGWYRQAPGKERELVAAIRSDDTTNYADSVKGRFTISRDNAKNTVYLQMNSLKPEDTAVYYCATACYSWVSYDYWGQGTQVTVSS" .
(A) low polyreactivity

* * *

assay: yeast display, Sf9 membrane polyspecificity reagent, FACS + sequencing; frameworks hold sequencing errors
endpoint: polyreactivity (PSR sort gate)

QVQLVESGGGLVQAGGSLRLSCAASGLTFWYYAMGWYRQAPGKERELVAAISFSGGRTYYADSVKGRFTISRDNAKYTVYLQMNSLKPEDTAVYYCNKATWYPFWYAPSYDYWGQGTQVTVSS	high polyreactivity
QVQLVESGGGLVQAGGSLRLSCAASGSIFARYAMGWYRQAPGKERELDAAISGRGGSTYYADSVKGRFTISRDNAKNTVYLQMNSLKPEDTAVYYCNAVGHTSIRRALDILDYWGQGTQVTVSS	high polyreactivity
QVQLVESGGGLVQAGGSLRLSCAASAFILYFNAMGWYRQAPGKESDLVAAISRGDGYTYADSVKGRFTISRDNAKNTVYLLMNRLNPEDTEVYYCNAGLGVVVTLYVGSGYDSWGHGTQVTVSS	low polyreactivity
QVQIVESRGGLVQAGGSLSLSCAASGRIFDYYAMGWYRQPPGKERELVAAISSSVGNTYYADSVKGRFTISRDNSKNTVYLQMNSLKPEVTAVYYCADYSYVRSSYEVEYDYWGQGTQVTVSS	low polyreactivity
QVQLVESGGCLVQAGGSLRLSCAASRSTFSYNAMGWYRHAPRKERELVASSSTSGGSTYYADSVKGRFSISRDNAKNTVYLQINSLTPEDTAVYYCNAPTSDIYSDFDYWGQGTQVTVSS	low polyreactivity
QVQLVESGGGLVQPGCSLRLSCAASGSTFESYAMGWYRQAPGKERELVAAISWRVGSTYYADSVKGRFTISRDNAKNTVYLQMNSLKPEDNAVYYCASKGWYSHYGGYDYWGQGTQVTVSS	low polyreactivity
QGQLVESGGGLVQAGGSLRLSCAASGRTFYTYAMGWYSPAAGKERELVAAMTRSGGRTYYADSVKVRFTISRDNAKNTVYLQMNSLKPEDTAVYYCGAKTFYWWADYDYWGQGTQVTVSS	high polyreactivity
QVQLVESGGGLVQAGGSLRLSCAASGLIFDDYDMGWYRQAPGKERELVAAISLSGGSTFYADSVKGRFTISRDNAKNTVYLLMNSLKPEDTAVYYCAAQARRAYVQTRKYYWGQGTQVTVSS	high polyreactivity
QVQLVESGGGLVQAGGSLRLSCAASGSIFSIYAMGWYRQAPGKERELVAAIDSGTSTTYADSVKGRFTISRDNAKNTVYLQMNSLKPEDTAVYYCAAALYSDVAAVATYVYYWGQGTQVTVSS	low polyreactivity
QVQLVESAGGLVQAGGSLRLSCAASGLTFSIYALGWYRQAAGKERELVAAITGRGGRTYYADSVKGRFPISRDNAKNTVYLQMNTLKPDDTAVYYCAARYRGTDFDYWGQGTQVTVSS	high polyreactivity

# context switch: different sequence, same polyreactivity (PSR sort gate)
(Q) I would be grateful if you could share the reported polyreactivity (PSR sort gate) for "QVQLVESGGGLVQAGGSLRLSCAASGSIFPAYTMGWYRQAPGKERELVAAIPYSGARSTYYADSVKGRVTNSRDNAKNTVYLQMNSLKPEDTAVYYCNARDRARYFYDMDYWGQGTQVTVSS" .
(A) low polyreactivity

* * *

assay: yeast display, Sf9 membrane polyspecificity reagent, FACS + sequencing; frameworks hold sequencing errors
endpoint: polyreactivity (PSR sort gate)

QVQLVDSGGGLVQAGGSLRLSCAASGSTFVQYAMGWYRPAPGKERELVAAISTGGSTNYADSVKGRFTISRDNAKNTVYLEMNSLKPEDTAVYYCNVAVWTIVQSLYPYDYWGQGTQVTVSS	low polyreactivity
QVQLQESGGVQAGGSLRLSCAESGYISRSDVMGWYRQAPGKERELVATINNGTITYYADSVKGRFTISRDNAKNTVYLQMNSLKPEDTAVHYCAVVQSDTDSLYYWGQGTQVTVSS	low polyreactivity
QVQLVESGGGLVQAGGSLRLICAASGSTYSVYAMVWYRQAPGKERELVATITWNGGRTYYADSVKGRFTISRDNAKNTVYLQMNSLKPEDTAVYYCAADGWTSIGGPDYQHDYWGQGTQVTVSS	high polyreactivity
QVQLVESGRGLVQAGGSLRLSCAASGSILYSYAMGWYRQAPGKERELVAAISSSGGTNYAASVKGSFTISRDNAKNTVYLQMNSLKPEDTEVYYCNADVLDGGYDYWGQGTQVTVSS	low polyreactivity
QVQLVESGGGLVQAGGSLRLSCAASGRIFGSNAMGWYRQAPGKERELVATITKNGTSTYYADSVKGRFTISRDNAKNTVYLQMNSLKPEDTAVYYCARAPLRYSSRYEYWGQGTQVTVSS	low polyreactivity
QVQLVESGGGLVQAGGSLRLSCAASGFTFPDNAMGWYRQAPGKERELVAAITTSGGRTYYADSVKGRFTISRDNAKNTVYLQMNSLKPEDTAVYYCARPSRRTGREYGYWGQGTQVTVSS	high polyreactivity

(Q) I would be grateful if you could share the reported polyreactivity (PSR sort gate) for "QVQLVESGGGLVQAGGSLRLICAASGRIFYPYAMGWYRPAPGKERELVATITRTGSTYYADSVKGRFTISRDNAKNTVYLHMNSLKPEDTAVYYCAVQRSYVGPRQYNYWGQGTQVTVSS" .
(A) high polyreactivity

(Q) I would be grateful if you could share the reported polyreactivity (PSR sort gate) for "QVQLVESGGGLVQAGGSLRLSCAASGRTFSGYAMGWYRQAPGKERELVAAISNSGGNTYYADSVKGRFTISRDNAKNTVYLQMNSLKAEDTAVYYSAVDSSSPYDYWGQGTQVTVSS" .
(A) high polyreactivity

(Q) I would be grateful if you could share the reported polyreactivity (PSR sort gate) for "QVQLVESGGGLVQAGGSLRLSCAASGSIFWFYGMGWYRQAPGKERELVAAISWSGGNTYADSVKGRFTISRDNAKNTVYVQMNSLKPEDTAVYYCNAVVRAYYTSIWVPRYDYWGQGTQVTVSS" .
(A) high polyreactivity
